Entries and their measured % degradation of peptides in 24 h when incubated with liver microsomes follow.
# assay_explanation: Stability of peptides in human liver microsomes
# Type: in vitro ADME
# measurement_conditions: human, microsomes, 24 h, 2 μM, pH 7.8
Where a SMILES comes first, the peptide text is derived from it. [ ]: non-standard residue; d: D form. ξ: configuration not given here. Arg(NO2) = N=C(NCCC[C@H](N)C(=O)O)N[N+](=O)[O-]; ξαMePhe(2,6-F2) = CC(N)(Cc1c(F)cccc1F)C(=O)O; ξαMePhe(2-F) = CC(N)(Cc1ccccc1F)C(=O)O; hArg = N=C(N)NCCCC[C@H](N)C(=O)O; Nle = CCCC[C@H](N)C(=O)O; Ac5c = NC1(C(=O)O)CCCC1; Aib = CC(C)(N)C(=O)O
endpoint_label: % degradation of peptides in 24 h when incubated with liver microsomes (%)

>>> recorded_value("CCCCC(C)(NC(=O)[C@H](CC(C)C)NC(=O)[C@H](CCC(N)=O)NC(=O)[C@@H](NC(=O)[C@H](CCC(=O)O)NC(=O)C(C)(C)NC(=O)[C@@H](NC(=O)C1(NC(=O)[C@@H](N)C(C)C)CCCC1)C(C)C)[C@@H](C)CC)C(=O)N[C@@H](Cc1c[nH]cn1)C(=O)N[C@@H](CCC(N)=O)C(=O)N[C@@H](CCCCNC(=N)N)C(=O)N[C@@H](C)C(=O)N[C@@H](CCCCNC(=N)N)C(=O)NC(Cc1ccc(-c2ccc(OC)cc2CC)cc1)C(=O)NC(C)(CCCc1ccccc1)C(N)=O (single isomer, unassigned) [Seq. ID. 925]")
100
>>> recorded_value("CCCC[C@H](NC(=O)C(C)(Cc1ccccc1F)NC(=O)[C@H](CCC(N)=O)NC(=O)[C@@H](NC(=O)[C@H](CCC(=O)O)NC(=O)C(C)(C)NC(=O)[C@@H](NC(=O)C1(N)CCCC1)C(C)C)[C@@H](C)CC)C(=O)N[C@@H](Cc1c[nH]cn1)C(=O)N[C@@H](CCC(N)=O)C(=O)N[C@@H](CCCCNC(=N)N)C(=O)NC(C)(C)C(=O)N[C@@H](CCCNC(=N)N[N+](=O)[O-])C(=O)NC(C)(Cc1c(F)cccc1F)C(N)=O (some centres unmarked) [Seq. ID. 270] (H-[Ac5c]V[Aib]EIQ[ξαMePhe(2-F)][Nle]HQ[hArg][Aib][Arg(NO2)][ξαMePhe(2,6-F2)]-NH2)")
100

###

# assay_explanation: Stability of peptides in simulated gastric fluid (pH 1.5; HCl, NaCl and Pepsin)
# Format: in vitro ADME
# measurement_conditions: simulated gi fluid, pH 1.5
Where a SMILES comes first, the peptide text is derived from it. [ ]: non-standard residue; d: D form. ξ: configuration not given here. ξαMePhe(2,6-F2) = CC(N)(Cc1c(F)cccc1F)C(=O)O; ξαMePhe(2-F) = CC(N)(Cc1ccccc1F)C(=O)O; Nle = CCCC[C@H](N)C(=O)O; Aib = CC(C)(N)C(=O)O
endpoint_label: half-life (h)

>>> recorded_value("CCCC[C@H](NC(=O)C(C)(Cc1ccccc1F)NC(=O)[C@H](CCC(N)=O)NC(=O)[C@@H](NC(=O)[C@H](CCC(=O)O)NC(=O)C(C)(C)NC(=O)[C@@H](NC(=O)C(C)(C)N)C(C)C)[C@@H](C)CC)C(=O)N[C@@H](Cc1c[nH]cn1)C(=O)N[C@@H](CCC(N)=O)C(=O)NC(C)(Cc1c(F)cccc1F)C(=O)NC(C)(C)C(=O)NC(C)(C)C(=O)NC(C)(Cc1ccccc1F)C(N)=O (some centres unmarked) [Seq. ID. 490] (H-[Aib]V[Aib]EIQ[ξαMePhe(2-F)][Nle]HQ[ξαMePhe(2,6-F2)][Aib][Aib][ξαMePhe(2-F)]-NH2)")
4

###

# assay_explanation: Stability of peptides in human plasma
# Assay type: in vitro ADME
# measurement_conditions: human, plasma
Where a SMILES comes first, the peptide text is derived from it. [ ]: non-standard residue; d: D form. ξ: configuration not given here. ξαMe(hhPhe) = CC(N)(CCCc1ccccc1)C(=O)O; ξαMeW = CC(N)(Cc1c[nH]c2ccccc12)C(=O)O; hArg = N=C(N)NCCCC[C@H](N)C(=O)O; ξαMeF = CC(N)(Cc1ccccc1)C(=O)O; ξαMeNle = CCCCC(C)(N)C(=O)O; Nle = CCCC[C@H](N)C(=O)O; Aib = CC(C)(N)C(=O)O
endpoint_label: half-life (t1/2) in human plasma

>>> recorded_value("CCCCC(C)(NC(=O)[C@H](CC(C)C)NC(=O)[C@H](CCC(N)=O)NC(=O)[C@@H](NC(=O)[C@H](CCC(=O)O)NC(=O)C(C)(C)NC(=O)[C@@H](NC(=O)C(C)(C)N)C(C)C)[C@@H](C)CC)C(=O)N[C@@H](Cc1c[nH]cn1)C(=O)N[C@@H](CCC(N)=O)C(=O)N[C@@H](CCCCNC(=N)N)C(=O)N[C@@H](C)C(=O)N[C@@H](CCCCNC(=N)N)C(=O)NC(C)(Cc1c[nH]c2ccccc12)C(=O)NC(C)(CCCc1ccccc1)C(N)=O (some centres unmarked) [Seq. ID. 949] (H-[Aib]V[Aib]EIQL[ξαMeNle]HQ[hArg]A[hArg][ξαMeW][ξαMe(hhPhe)]-NH2)")
"(9) h"
>>> recorded_value("CCCC[C@H](NC(=O)[C@H](CC(C)C)NC(=O)[C@H](CCC(N)=O)NC(=O)[C@@H](NC(=O)[C@H](CCC(=O)O)NC(=O)C(C)(C)NC(=O)[C@@H](NC(=O)C(C)(C)N)C(C)C)[C@@H](C)CC)C(=O)N[C@@H](Cc1c[nH]cn1)C(=O)N[C@@H](CCC(N)=O)C(=O)N[C@@H](CCCCNC(=N)N)C(=O)NC(C)(C)C(=O)N[C@@H](CCCCN)C(=O)NC(C)(Cc1ccccc1)C(N)=O (some centres unmarked) [Seq. ID. 10] (H-[Aib]V[Aib]EIQL[Nle]HQ[hArg][Aib]K[ξαMeF]-NH2)")
"(9) h"

###

Entries and their measured half-life follow.
# assay_explanation: Stability of peptides in human liver microsomes
# Assay type: in vitro ADME
# measurement_conditions: human, microsomes
Where a SMILES comes first, the peptide text is derived from it. [ ]: non-standard residue; d: D form. ξ: configuration not given here. Arg(NO2) = N=C(NCCC[C@H](N)C(=O)O)N[N+](=O)[O-]; ξαMePhe(2,6-F2) = CC(N)(Cc1c(F)cccc1F)C(=O)O; ξαMePhe(2-F) = CC(N)(Cc1ccccc1F)C(=O)O; hArg = N=C(N)NCCCC[C@H](N)C(=O)O; Nle = CCCC[C@H](N)C(=O)O; Ac5c = NC1(C(=O)O)CCCC1; Aib = CC(C)(N)C(=O)O
endpoint_label: half-life (h)

>>> recorded_value("CCCC[C@H](NC(=O)C(C)(Cc1ccccc1F)NC(=O)[C@H](CCC(N)=O)NC(=O)[C@@H](NC(=O)[C@H](CCC(=O)O)NC(=O)C(C)(C)NC(=O)[C@@H](NC(=O)C(C)(C)N)C(C)C)[C@@H](C)CC)C(=O)N[C@@H](Cc1c[nH]cn1)C(=O)N[C@@H](CCC(N)=O)C(=O)NC(C)(C)C(=O)NC(C)(C)C(=O)NC(C)(Cc1c(F)cccc1F)C(=O)NC(C)(Cc1ccccc1F)C(N)=O (stereo partly shown) [Seq. ID. 570] (H-[Aib]V[Aib]EIQ[ξαMePhe(2-F)][Nle]HQ[Aib][Aib][ξαMePhe(2,6-F2)][ξαMePhe(2-F)]-NH2)")
0.5
>>> recorded_value("CCCC[C@H](NC(=O)C(C)(Cc1c(F)cccc1F)NC(=O)[C@H](CCC(N)=O)NC(=O)[C@@H](NC(=O)[C@H](CCC(=O)O)NC(=O)C1(NC(=O)[C@@H](NC(=O)C2(N)CCCC2)C(C)C)CCCC1)[C@@H](C)CC)C(=O)N[C@@H](Cc1c[nH]cn1)C(=O)N[C@@H](CCC(N)=O)C(=O)N[C@@H](CCCCNC(=N)N)C(=O)N[C@@H](C)C(=O)N[C@@H](CCCCN)C(=O)NC(C)(Cc1c(F)cccc1F)C(N)=O (stereo partly shown) [Seq. ID. 115] (H-[Ac5c]V[Ac5c]EIQ[ξαMePhe(2,6-F2)][Nle]HQ[hArg]AK[ξαMePhe(2,6-F2)]-NH2)")
1
>>> recorded_value("CCCC[C@H](NC(=O)C(C)(Cc1c(F)cccc1F)NC(=O)[C@H](CCC(N)=O)NC(=O)[C@@H](NC(=O)[C@H](CCC(=O)O)NC(=O)C(C)(C)NC(=O)[C@@H](NC(=O)C1(N)CCCC1)C(C)C)[C@@H](C)CC)C(=O)N[C@@H](Cc1c[nH]cn1)C(=O)N[C@@H](CCC(N)=O)C(=O)N[C@@H](CCCCNC(=N)N)C(=O)NC(C)(C)C(=O)N[C@@H](CCCNC(=N)N[N+](=O)[O-])C(=O)NC(C)(Cc1ccccc1F)C(N)=O (stereo partly shown) [Seq. ID. 260] (H-[Ac5c]V[Aib]EIQ[ξαMePhe(2,6-F2)][Nle]HQ[hArg][Aib][Arg(NO2)][ξαMePhe(2-F)]-NH2)")
1
>>> recorded_value("CCCC[C@H](NC(=O)C(C)(Cc1ccccc1F)NC(=O)[C@H](CCC(N)=O)NC(=O)[C@@H](NC(=O)[C@H](CCC(=O)O)NC(=O)C(C)(C)NC(=O)[C@@H](NC(=O)C(C)(C)N)C(C)C)[C@@H](C)CC)C(=O)N[C@@H](Cc1c[nH]cn1)C(=O)N[C@@H](CCC(N)=O)C(=O)NC(C)(Cc1c(F)cccc1F)C(=O)NC(C)(C)C(=O)NC(C)(C)C(=O)NC(C)(Cc1ccccc1F)C(N)=O (stereo partly shown) [Seq. ID. 490] (H-[Aib]V[Aib]EIQ[ξαMePhe(2-F)][Nle]HQ[ξαMePhe(2,6-F2)][Aib][Aib][ξαMePhe(2-F)]-NH2)")
2

Provenance of the data: patent US8383581B2
